target: IKZF2 (Homo sapiens, UniProt Q96SW2+Q9UKS7); construct: expressed in transfected cells; test: HiBiT protein tagging assay, in vitro IKZF2 degradation (HEK293); assay type: cell-based; conditions: HEK293, HiBiT assay, HEK293, 18-24 hr incubation, normalized to DMSO control; read-out: IKZF2 Dmax (maximum degradation at the highest concentration tested)
Sequence (Q9UKS7 1-500 isoform Q9UKS7-2): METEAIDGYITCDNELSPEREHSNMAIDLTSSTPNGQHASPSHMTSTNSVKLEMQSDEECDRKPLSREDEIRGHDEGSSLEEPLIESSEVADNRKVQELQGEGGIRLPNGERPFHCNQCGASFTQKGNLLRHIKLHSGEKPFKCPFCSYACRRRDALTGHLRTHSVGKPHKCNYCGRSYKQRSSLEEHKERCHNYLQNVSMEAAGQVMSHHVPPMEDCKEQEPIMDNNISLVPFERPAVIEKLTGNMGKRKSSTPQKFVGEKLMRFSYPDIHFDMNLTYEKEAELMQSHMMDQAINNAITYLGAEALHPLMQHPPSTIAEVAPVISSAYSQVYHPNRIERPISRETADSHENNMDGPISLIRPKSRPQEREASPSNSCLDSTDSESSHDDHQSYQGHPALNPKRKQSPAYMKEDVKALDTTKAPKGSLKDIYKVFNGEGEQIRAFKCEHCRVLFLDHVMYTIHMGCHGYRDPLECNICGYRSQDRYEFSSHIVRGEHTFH
Sequence (Q96SW2 whole entry): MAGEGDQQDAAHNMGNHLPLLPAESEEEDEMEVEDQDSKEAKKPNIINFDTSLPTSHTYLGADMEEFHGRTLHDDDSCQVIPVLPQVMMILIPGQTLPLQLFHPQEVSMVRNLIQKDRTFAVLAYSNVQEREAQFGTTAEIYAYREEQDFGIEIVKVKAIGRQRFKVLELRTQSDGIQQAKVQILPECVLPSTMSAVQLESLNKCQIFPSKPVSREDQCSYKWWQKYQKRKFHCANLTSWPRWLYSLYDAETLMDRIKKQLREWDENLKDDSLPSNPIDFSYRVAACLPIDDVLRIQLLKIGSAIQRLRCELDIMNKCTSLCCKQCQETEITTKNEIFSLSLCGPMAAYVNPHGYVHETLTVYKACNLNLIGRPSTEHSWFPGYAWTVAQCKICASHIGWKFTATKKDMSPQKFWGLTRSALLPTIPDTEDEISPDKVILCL
Sequence (Q16531 whole entry partner): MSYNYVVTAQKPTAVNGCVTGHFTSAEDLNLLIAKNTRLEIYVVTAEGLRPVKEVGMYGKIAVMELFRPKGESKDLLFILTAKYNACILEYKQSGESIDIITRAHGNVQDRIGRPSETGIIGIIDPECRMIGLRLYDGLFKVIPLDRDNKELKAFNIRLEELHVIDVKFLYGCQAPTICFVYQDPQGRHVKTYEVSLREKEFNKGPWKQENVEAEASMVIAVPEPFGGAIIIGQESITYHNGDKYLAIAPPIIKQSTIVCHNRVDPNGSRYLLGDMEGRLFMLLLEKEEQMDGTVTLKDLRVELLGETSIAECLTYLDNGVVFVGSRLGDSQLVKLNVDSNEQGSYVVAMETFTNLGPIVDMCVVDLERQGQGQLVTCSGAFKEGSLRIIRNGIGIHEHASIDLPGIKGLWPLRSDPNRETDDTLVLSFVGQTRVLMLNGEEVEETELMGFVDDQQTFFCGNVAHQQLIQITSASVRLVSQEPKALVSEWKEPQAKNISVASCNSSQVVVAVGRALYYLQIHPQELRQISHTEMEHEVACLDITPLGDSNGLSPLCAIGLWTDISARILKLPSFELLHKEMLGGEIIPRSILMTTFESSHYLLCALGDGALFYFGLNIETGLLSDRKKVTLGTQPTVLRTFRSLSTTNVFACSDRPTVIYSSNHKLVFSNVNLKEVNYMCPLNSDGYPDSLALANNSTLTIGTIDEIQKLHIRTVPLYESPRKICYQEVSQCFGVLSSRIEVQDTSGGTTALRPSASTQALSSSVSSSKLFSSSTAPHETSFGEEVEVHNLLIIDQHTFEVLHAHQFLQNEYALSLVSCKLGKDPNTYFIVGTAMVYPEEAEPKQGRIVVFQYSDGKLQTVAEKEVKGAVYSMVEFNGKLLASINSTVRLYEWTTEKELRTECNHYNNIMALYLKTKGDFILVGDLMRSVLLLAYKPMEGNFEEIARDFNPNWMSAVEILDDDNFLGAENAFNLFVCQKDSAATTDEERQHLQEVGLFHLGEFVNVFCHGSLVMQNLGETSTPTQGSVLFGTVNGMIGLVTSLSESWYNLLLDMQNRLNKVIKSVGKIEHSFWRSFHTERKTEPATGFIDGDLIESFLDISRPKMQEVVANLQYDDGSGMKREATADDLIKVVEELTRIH
recorded_endpoint: Dmax (%)

> print(dat)
                                   compound  quantity.unit  assay.result
1  C[C@H]1CC[C@@H](NCc2ccc3c(c2)CN(C2CCC(=O)NC2=O)C3=O)CN1Cc1ccccc1 (stereo partly shown)              %            93
2  CC1(C)C[C@]2(CC[C@@H](NCc3ccc4c(c3)CN(C3CCC(=O)NC3=O)C4=O)CC2)CO1 (stereo partly shown)              %            78

a: O=C1CCC(N2Cc3cc(CNC4CCC(Cc5ccccc5)C4)ccc3C2=O)C(=O)N1 (stereo not shown)
b: O=C1CCC(N2Cc3cc(CN[C@@H]4CCc5ccccc5C4)ccc3C2=O)C(=O)N1 (stereo partly shown)
Just curious, which one has the larger Dmax reading, a or b ? State your choice using its label.
a

###

target: IKZF1 (Homo sapiens, UniProt Q13422+Q96SW2); construct: expressed in transfected cells; assay: HiBiT protein tagging assay, in vitro IKZF1 degradation (HEK293); assay type: cell-based; settings: HEK293, 18-24 hr incubation, normalized to DMSO control, read-out: IKZF1 Dmax (maximum degradation at the highest concentration tested)
Sequence (Q13422 whole entry, one chain of several): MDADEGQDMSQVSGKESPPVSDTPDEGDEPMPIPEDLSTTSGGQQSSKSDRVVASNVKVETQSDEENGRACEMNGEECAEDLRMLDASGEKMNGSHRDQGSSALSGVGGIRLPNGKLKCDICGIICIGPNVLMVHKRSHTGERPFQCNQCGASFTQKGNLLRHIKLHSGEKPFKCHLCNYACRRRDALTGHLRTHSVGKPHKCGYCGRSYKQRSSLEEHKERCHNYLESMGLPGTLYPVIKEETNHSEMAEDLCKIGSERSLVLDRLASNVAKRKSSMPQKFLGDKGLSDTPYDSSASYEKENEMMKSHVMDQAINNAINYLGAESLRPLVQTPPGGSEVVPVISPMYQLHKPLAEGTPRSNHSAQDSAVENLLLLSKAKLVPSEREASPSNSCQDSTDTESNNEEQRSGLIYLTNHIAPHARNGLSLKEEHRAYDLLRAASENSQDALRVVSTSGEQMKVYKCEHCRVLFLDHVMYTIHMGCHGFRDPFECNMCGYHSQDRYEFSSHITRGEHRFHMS
recorded_endpoint: Dmax (%)

Illustrative cases are given below, each with its answer.
> print(dat)
                                   molecule                                    target  quantity.unit  assay.result
1  N#CC1CCCC(NCc2ccc3c(c2)CN(C2CCC(=O)NC2=O)C3=O)C1 (centres unmarked) [Example 93]  IKZF1 (Homo sapiens, UniProt Q13422+Q96SW2)              %            29
2  O=C1CCC(N2Cc3cc(CN[C@H]4CCC[C@@H](Oc5ccccc5)C4)ccc3C2=O)C(=O)N1 (some centres unmarked) [Example 110]  IKZF1 (Homo sapiens, UniProt Q13422+Q96SW2)              %            55

P: COC[C@@H]1CCCC[C@@H]1NCc1ccc2c(c1)CN(C1CCC(=O)NC1=O)C2=O (some centres unmarked) [Example 158]
Q: C[C@H]1CCCC[C@H]1NCc1ccc2c(c1)CN(C1CCC(=O)NC1=O)C2=O (some centres unmarked) [Example 78]
Quick one: lower Dmax, P or Q ? API: response body contains the label of the selected item.
Q

P: O=C1CCC(N2Cc3cc(CNCCc4ccccc4Cl)ccc3C2=O)C(=O)N1 (centres unmarked) [Example 44]
Q: O=C1CCC(N2Cc3cc(CNC45CCC(CO)(CC4)C5)ccc3C2=O)C(=O)N1 (centres unmarked) [Example 142]
Quick one: lower Dmax, P or Q ? Give the label of your selection.
Q

1: O=C1CCC(N2Cc3cc(CNC4CCC(Oc5ccccc5)CC4)ccc3C2=O)C(=O)N1 (centres unmarked) [Example 104]
2: O=C1CCC(N2Cc3cc(CNC4CCCC5(CCCC5)C4)ccc3C2=O)C(=O)N1 (centres unmarked) [Example 133]
Thinking about recorded Dmax values, which is higher, 1 or 2 ? Give the label under which the chosen entry appears.
1
